Hello, the source for this data is patent EP4603105A1, in case you need it.

Tested on: human lung cancer strain NCI-H441
Type: cell-based
Listed here: items and their measured IC50.
// units = µM; emit number, no label

Record excerpt, results attached:
CCC[C@H]1C(=O)N[C@@H]([C@@H](C)CC)C(=O)N(C)CC(=O)N(C)[C@H]2C/C=C\CCN(C2=O)[C@@H](CC2CCC(F)(F)CC2)C(=O)N(C)CC(=O)N[C@@H](CCc2ccc(C(F)(F)F)c(OC)c2)C(=O)N2C[C@H](OCC)C[C@H]2C(=O)N(C)C2(CCC2)C(=O)N(C)[C@@H](C2CCCC2)C(=O)N(C)[C@H](C(=O)N(C)C)CC(=O)N1C: 0.0527
C#CC[C@H]1C(=O)N[C@@H]([C@@H](C)CC)C(=O)N(C)CC(=O)N(C)[C@H]2C/C=C\CCN(C2=O)[C@@H](Cc2ccc(C)cc2)C(=O)N(C)CC(=O)N[C@@H](CCc2cc(F)c(C(F)(F)F)c(F)c2)C(=O)N2C[C@H](OCC)C[C@H]2C(=O)N(C)C2(CCC2)C(=O)N(C)[C@@H](C2CCCC2)C(=O)N(C)[C@H](C(=O)N(C)C)CC(=O)N1C: 0.0019

Attention now shifts to the item below.
(Q) Could you tell me which IC50 is on file for CCC(CC)[C@H]1C(=O)N(C)[C@H](C(=O)N(C)C)CC(=O)N(C)[C@@H](COC)C(=O)N[C@@H]([C@@H](C)CC)C(=O)N(C)CC(=O)N(C)[C@H]2C/C=C\CCN(C2=O)[C@@H](Cc2ccc(C(F)(F)F)cc2)C(=O)N(C)CC(=O)N[C@@H](CCc2cc(F)c(C(F)(F)F)c(F)c2)C(=O)N2CCCC[C@H]2C(=O)NC2(CC(C)(C)C2)C(=O)N1C ?
(A) 0.106

###

System: human lung cancer strain NCI-H441
Assay: NCI-H441 cell proliferation inhibitory activity (CellTiter-Glo, 4 days)
Format: cell-based
Details: 50% proliferation inhibitory concentration, four days, read-out: NCl-H441 IC50
reportedEndpoint: IC50 (nM)
Give the value in nM but do not write nM after it.

The examples below pair each entry with its known result.
CCO[C@@H]1C[C@H]2C(=O)NC3(CCC3)C(=O)N(C)[C@@H](C3CCCC3)C(=O)N(C)[C@H](C(=O)N(C)C)CC(=O)N(C)[C@@H](Cc3cccs3)C(=O)N[C@@H]([C@@H](C)CC)C(=O)N(C)CC(=O)N(C)[C@H]3CCCCCN(C3=O)[C@@H](Cc3ccc(C(F)(F)F)cc3)C(=O)N(C)CC(=O)N[C@@H](CCc3cc(F)c(C(F)(F)F)c(F)c3)C(=O)N2C1 [PP1169]: 74
CCO[C@@H]1C[C@H]2C(=O)NC3(CCC3)C(=O)N(C)[C@@H](C3CCCC3)C(=O)N(C)[C@H](C(=O)N(C)C)CC(=O)N(C)[C@@H](Cc3cccc(C#N)c3)C(=O)N[C@@H]([C@@H](C)CC)C(=O)N(C)CC(=O)N(C)[C@H]3CCCCCN(C3=O)[C@@H](Cc3ccc(C(F)(F)F)cc3)C(=O)N(C)CC(=O)N[C@@H](CCc3cc(F)c(C(F)(F)F)c(F)c3)C(=O)N2C1 [PP1172]: 48.3

(Q) I'd like to know its IC50. The compound in question is CCCC[C@H]1C(=O)NC2(CCC2)C(=O)N(C)[C@@H](C2CCCC2)C(=O)N(C)[C@H](C(=O)N(C)C)CC(=O)N(C)[C@@H](CC)C(=O)N[C@@H]([C@@H](C)CC)C(=O)N(C)CC(=O)N(C)[C@H]2C/C=C\CCN(C2=O)[C@@H](Cc2ccc(C(F)(F)F)cc2)C(=O)N(C)CC(=O)N[C@@H](CCc2cc(F)c(C(F)(F)F)c(F)c2)C(=O)N1C [PP1150]
(A) 42.7
